Tested target: Peptidase (Staphylococcus aureus, UniProt Q7DHH4)
Sequence (Q7DHH4 whole entry): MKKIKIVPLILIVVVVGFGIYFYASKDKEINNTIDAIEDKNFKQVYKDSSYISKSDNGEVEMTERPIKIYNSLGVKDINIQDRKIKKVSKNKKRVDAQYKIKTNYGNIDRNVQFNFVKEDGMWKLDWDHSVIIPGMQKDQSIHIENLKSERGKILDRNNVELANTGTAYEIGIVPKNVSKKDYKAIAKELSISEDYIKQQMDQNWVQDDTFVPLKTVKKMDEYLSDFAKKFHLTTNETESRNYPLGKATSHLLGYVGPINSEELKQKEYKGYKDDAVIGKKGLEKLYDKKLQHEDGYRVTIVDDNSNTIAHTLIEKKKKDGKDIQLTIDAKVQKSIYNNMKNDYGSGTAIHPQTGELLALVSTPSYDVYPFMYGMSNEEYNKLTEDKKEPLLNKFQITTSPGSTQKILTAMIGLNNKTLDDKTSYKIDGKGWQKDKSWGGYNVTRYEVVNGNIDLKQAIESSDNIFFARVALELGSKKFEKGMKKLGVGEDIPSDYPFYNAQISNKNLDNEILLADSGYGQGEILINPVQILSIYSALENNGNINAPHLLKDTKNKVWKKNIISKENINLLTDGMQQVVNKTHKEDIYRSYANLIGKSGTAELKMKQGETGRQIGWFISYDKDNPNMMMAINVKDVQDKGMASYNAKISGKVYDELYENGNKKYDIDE
Test method notes: Binding affinity to Staphylococcus aureus PBP2a assessed as dissociation constant by SPR assay
Property: koff; scope: individual compounds
Include the unit right after the number.

Solved entries (count: 3):
Structure smiles string | Readout value
COc1cc2c(c(OC)c1OC)-c1ccc(NCC(=O)NCCc3c[nH]c4ccccc34)c(=O)cc1[C@@H](NC(C)=O)CC2 | 0.0207 s⁻¹
Cc1ccc(NC(=O)[C@H](Cc2c[nH]c3ccccc23)NC(=O)C2CCN(C(=O)CNC(=O)OC(C)(C)C)CC2)cc1 | 0.0253 s⁻¹
COc1ccc(-c2cc(=O)oc3c(C)c(OCC(=O)N[C@@H](Cc4c[nH]c5ccc(O)cc45)C(=O)O)ccc23)cc1 | 0.0214 s⁻¹

From here, focus on the item given below.
Which value of koff has been reported for COc1ccc(NC(=O)[C@H]2Oc3c(c(=O)oc4ccccc34)[C@@H]2c2ccc(CCCN3CCCC3=O)cc2)cc1 in the records?
0.0284 s⁻¹
